system: Huh-7; experiment: Cytotoxicity against human Huh-7 cells assessed as reduction in cell viability at 5 uM by CCK8 assay relative to control; type: toxicity, cell-based; details: huh-7, 5 µM
Each entry below lists one item and its recorded cell viability value.

{"molecule": "O=C(/C=C/c1ccc2c(c1)OCO2)N1CCN(C(c2ccc(F)cc2)c2ccc(F)cc2)CC1", "cell viability": "> 80%"}
{"molecule": "Cc1ccc(/C=C/C(=O)N2CCN(C(c3ccccc3)c3ccc(Cl)cc3)CC2)cc1 (centres undefined)", "cell viability": "> 80%"}
{"molecule": "O=C(/C=C/c1ccncc1)N1CCN(C(c2ccc(F)cc2)c2ccc(F)cc2)CC1", "cell viability": "> 80%"}
{"molecule": "Cc1ccc(/C=C/C(=O)N2CCN(C(c3ccc(F)cc3)c3ccc(F)cc3)CC2)cc1", "cell viability": "> 80%"}
{"molecule": "O=C(/C=C/c1ccc(O)c(O)c1)N1CCN(C(c2ccc(F)cc2)c2ccc(F)cc2)CC1", "cell viability": "> 80%"}
{"molecule": "O=C(/C=C/c1ccccc1F)N1CCN(C(c2ccc(F)cc2)c2ccc(F)cc2)CC1", "cell viability": "> 80%"}
{"molecule": "O=C(/C=C/c1ccccc1F)N1CCN(C(c2ccccc2)c2ccccc2)CC1", "cell viability": "> 80%"}
{"molecule": "O=C(/C=C/c1ccc(F)cc1)N1CCN(C(c2ccc(F)cc2)c2ccc(F)cc2)CC1", "cell viability": "> 80%"}

Next:
Qu. Given the molecule O=C(/C=C/c1ccc2c(c1)OCO2)N1CCN(C(c2ccccc2)c2ccc(Cl)cc2)CC1 (centres undefined) , write its reported cell viability.
Ans. > 80%

====

system: Huh-7; assay: Cytotoxicity against human Huh-7 cells assessed as reduction in cell viability at 5 uM by CCK8 assay relative to control; format: toxicity, cell-based; conditions: huh-7, 5 µM
Each entry below lists one item and its recorded cell viability value.

{"compound": "O=C(/C=C/c1cccc(F)c1)N1CCN(C(c2ccc(F)cc2)c2ccc(F)cc2)CC1", "parameter": "cell viability", "endpoint-result": "> 80%"}
{"compound": "O=C(/C=C/c1ccc(O)c(O)c1)N1CCN(C(c2ccccc2)c2ccc(Cl)cc2)CC1 (stereo not drawn)", "parameter": "cell viability", "endpoint-result": "> 80%"}

Next:
Qu. Given the compound `O=C(/C=C/c1cccnc1)N1CCN(C(c2ccc(F)cc2)c2ccc(F)cc2)CC1` , write its reported cell viability.
Ans. > 80%

====

tested on: Chikungunya virus; test: Antiviral activity against CHIKV infected in human Huh-7 cells assessed as inhibition of viral growth at 5 uM incubated for 12 hrs relative to control; format: functional
parameter: inhibition at 5 µM (%)
Provide the reading as a plain figure in %.

Field: example entries. Status: answers known.
{"compound": "Cc1ccc(/C=C/C(=O)N2CCN(C(c3ccc(F)cc3)c3ccc(F)cc3)CC2)cc1", "inhibition at 5 µM, %": 32.8}
{"compound": "O=C(/C=C/c1ccccc1F)N1CCN(C(c2ccccc2)c2ccccc2)CC1", "inhibition at 5 µM, %": 62.1}
{"compound": "O=C(/C=C/c1cccc(F)c1)N1CCN(C(c2ccc(F)cc2)c2ccc(F)cc2)CC1", "inhibition at 5 µM, %": 78.9}
{"compound": "O=C(/C=C/c1ccc2c(c1)OCO2)N1CCN(C(c2ccccc2)c2ccc(Cl)cc2)CC1 (configuration not stated)", "inhibition at 5 µM, %": 52.3}
{"compound": "O=C(/C=C/c1ccc(F)cc1)N1CCN(C(c2ccc(F)cc2)c2ccc(F)cc2)CC1", "inhibition at 5 µM, %": 19.6}

Qu. Given the compound `O=C(/C=C/c1ccncc1)N1CCN(C(c2ccc(F)cc2)c2ccc(F)cc2)CC1` , write its reported inhibition at 5 µM.
Ans. 90.7

Qu. Given the compound `O=C(/C=C/c1ccc(O)c(O)c1)N1CCN(C(c2ccc(F)cc2)c2ccc(F)cc2)CC1` , write its reported inhibition at 5 µM.
Ans. 43.9

====

experiment: Selectivity index, ratio of CC50 for cytotoxicity against human Huh-7 cells to IC50 for antiviral activity against CHIKV infected in human Huh-7 cells; assay type: toxicity, cell-based; details: read-out: Ratio CC50/IC50
parameter: selectivity ratio
// return a plain number; no unit text

{"compound": "O=C(/C=C/c1ccc2c(c1)OCO2)N1CCN(C(c2ccc(F)cc2)c2ccc(F)cc2)CC1", "selectivity ratio": 66}
{"compound": "O=C(/C=C/c1ccncc1)N1CCN(C(c2ccc(F)cc2)c2ccc(F)cc2)CC1", "selectivity ratio": 13.3}
{"compound": "O=C(/C=C/c1cccnc1)N1CCN(C(c2ccc(F)cc2)c2ccc(F)cc2)CC1", "selectivity ratio": 13}
{"compound": "O=C(/C=C/c1ccccc1F)N1CCN(C(c2ccc(F)cc2)c2ccc(F)cc2)CC1", "selectivity ratio": 51.9}

Qu. Given the compound `O=C(/C=C/c1cccc(F)c1)N1CCN(C(c2ccc(F)cc2)c2ccc(F)cc2)CC1` , write its reported selectivity ratio.
Ans. 11.1

Qu. Given the compound O=C(/C=C/c1ccc2c(c1)OCO2)N1CCN(C(c2ccccc2)c2ccc(Cl)cc2)CC1 (centres undefined) , write its reported selectivity ratio.
Ans. 6.5

Qu. Given the compound `O=C(/C=C/c1ccccc1F)N1CCN(C(c2ccccc2)c2ccccc2)CC1` , write its reported selectivity ratio.
Ans. 7.6

====

Each entry below lists one item and its recorded IC50 value.
system: Chikungunya virus; test: Antiviral activity against CHIKV infected in human Huh-7 cells assessed as inhibition of viral growth incubated for 12 hrs; format: functional, organism-based; settings: Huh-7, 12 h
Provide the reading as a plain figure in µM.

{"compound": "O=C(/C=C/c1ccc2c(c1)OCO2)N1CCN(C(c2ccc(F)cc2)c2ccc(F)cc2)CC1", "measurement-units": "µM", "IC50": 0.45}

Qu. Given the compound `COc1ccc(CN2CCN(C(c3ccc(F)cc3)c3ccc(F)cc3)CC2)c(OC)c1OC` , write its reported IC50.
Ans. 4.02

Qu. Given the compound `O=C(/C=C/c1ccccc1F)N1CCN(C(c2ccc(F)cc2)c2ccc(F)cc2)CC1` , write its reported IC50.
Ans. 0.61

Qu. Given the compound `O=C(/C=C/c1ccncc1)N1CCN(C(c2ccc(F)cc2)c2ccc(F)cc2)CC1` , write its reported IC50.
Ans. 2.35

Qu. Given the compound `O=C(/C=C/c1ccccc1F)N1CCN(C(c2ccccc2)c2ccccc2)CC1` , write its reported IC50.
Ans. 4.5

Qu. Given the compound O=C(/C=C/c1ccc2c(c1)OCO2)N1CCN(C(c2ccccc2)c2ccc(Cl)cc2)CC1 (centres undefined) , write its reported IC50.
Ans. 4.83

Qu. Given the compound `O=c1cc(-c2ccccc2)oc2cc(O)c(O)c(O)c12` , write its reported IC50.
Ans. 16.9

Qu. Given the compound `O=C(/C=C/c1cccnc1)N1CCN(C(c2ccc(F)cc2)c2ccc(F)cc2)CC1` , write its reported IC50.
Ans. 1.61

Qu. Given the compound `O=C(/C=C/c1cccc(F)c1)N1CCN(C(c2ccc(F)cc2)c2ccc(F)cc2)CC1` , write its reported IC50.
Ans. 2.06

====

system: Chikungunya virus; experiment: Antiviral activity against CHIKV infected in human Huh-7 cells assessed as inhibition of viral growth at 5 uM incubated for 12 hrs relative to control; format: functional
Label true (1) when inhibition at 5 µM is at or above 50%; anything below gets false (0).

Example results:
{"molecule": "O=C(/C=C/c1cccnc1)N1CCN(C(c2ccc(F)cc2)c2ccc(F)cc2)CC1", "class-name": "true (1)"}
{"molecule": "O=C(/C=C/c1ccc(O)c(O)c1)N1CCN(C(c2ccccc2)c2ccc(Cl)cc2)CC1 (stereo not given)", "class-name": "false (0)"}
{"molecule": "O=C(/C=C/c1ccccc1F)N1CCN(C(c2ccc(F)cc2)c2ccc(F)cc2)CC1", "class-name": "true (1)"}
{"molecule": "O=C(/C=C/c1ccc2c(c1)OCO2)N1CCN(C(c2ccc(F)cc2)c2ccc(F)cc2)CC1", "class-name": "true (1)"}

Below: the item to evaluate.
Qu. inhibition at 5 µM >= 50% for Cc1ccc(/C=C/C(=O)N2CCN(C(c3ccccc3)c3ccc(Cl)cc3)CC2)cc1 (stereo not given) ?
Ans. false (0)
